Listing of entries alongside the reported bioavailability.
experiment: Oral bioavailability in C57BL/6 mouse at 20 mg/kg; assay type: ADME, organism-based; details: in vivo

compound	bioavailability, %
Cc1ccccc1C(=O)C1CCN(c2ccc(C(=O)NCC(O)c3cccnc3)nn2)CC1 (configuration not stated)	68
Cc1ccccc1C(=O)C1CCN(c2ccc(C(=O)NCC(O)c3ccccc3)nn2)CC1 (configuration not stated)	6

* * *

Target: Stearoyl-CoA desaturase (Homo sapiens) (UniProt O00767)
Sequence (whole entry): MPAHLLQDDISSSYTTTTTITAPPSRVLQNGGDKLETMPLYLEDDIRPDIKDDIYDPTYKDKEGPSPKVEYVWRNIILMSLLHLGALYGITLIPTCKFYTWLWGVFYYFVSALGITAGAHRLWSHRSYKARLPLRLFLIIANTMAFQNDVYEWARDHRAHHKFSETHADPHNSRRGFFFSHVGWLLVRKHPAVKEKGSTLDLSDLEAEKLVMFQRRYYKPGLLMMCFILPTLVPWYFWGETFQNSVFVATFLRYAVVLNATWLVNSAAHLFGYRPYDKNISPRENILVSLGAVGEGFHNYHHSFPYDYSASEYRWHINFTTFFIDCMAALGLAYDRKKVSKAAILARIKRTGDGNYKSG
Assay: Inhibition of human Scd1 assessed as conversion of [14C]stearate to [14C]oleate at 10 uM pretreated for 30 mins measured after 4 hrs
inhibition listing for selected compounds.
metric name: inhibition

compound	observed measurement
O=C(NCC(O)c1ccccc1)c1ccc(N2CCC(C(=O)c3ccccc3)CC2)nn1 (stereo unspecified)	< 5%
O=C(NCC(O)c1ccccc1)c1ccc(N2CCC(C(=O)c3ccccc3C(F)(F)F)CC2)nn1 (stereo unspecified)	9%
O=C(NCC(O)c1ccccc1)c1ccc(N2CCC(C(=O)c3ccccc3OC(F)(F)F)CC2)nn1 (stereo unspecified)	< 5%
O=C(NCC(O)c1ccccc1)c1ccc(N2CCC(C(=O)c3ccc(F)cc3)CC2)nn1 (stereo unspecified)	12%
COc1ccccc1C(=O)C1CCN(c2ccc(C(=O)NCC(O)c3ccccc3)nn2)CC1 (stereo unspecified)	< 5%
Cc1ccccc1C(=O)C1CCN(c2ccc(C(=O)NCC(O)c3ccccc3)nn2)CC1 (stereo unspecified)	< 5%

* * *

test: Cmax in C57BL/6 mouse at 20 mg/kg, po; format: ADME, organism-based; design: dose 20 mg/kg, route oral; details: in vivo
Cmax values, listed per item

compound	Cmax [ng/mL]
Cc1ccccc1C(=O)C1CCN(c2ccc(C(=O)NCC(O)c3cccnc3)nn2)CC1 (configuration not stated)	6300
Cc1ccccc1C(=O)C1CCN(c2ccc(C(=O)NCC(O)c3ccccc3)nn2)CC1 (configuration not stated)	300

* * *

assay: Volume of distribution in C57BL/6 mouse at 5 mg/kg, iv; type: ADME, organism-based; set-up: dose 5 mg/kg, route intravenous; conditions: in vivo
Entries and their measured Vd follow.
metric name: Vd (L/kg)

compound	metric name	observed measurement
Cc1ccccc1C(=O)C1CCN(c2ccc(C(=O)NCC(O)c3cccnc3)nn2)CC1 (configuration not stated)	Vd	2.4
Cc1ccccc1C(=O)C1CCN(c2ccc(C(=O)NCC(O)c3ccccc3)nn2)CC1 (configuration not stated)	Vd	0.9

* * *

target: Acyl-CoA desaturase 1 (Mus musculus, UniProt P13516); assay: Inhibition of Scd1 in mouse liver microsomes assessed as conversion of [14C]stearate to [14C]oleate pretreated for 10 mins measured after 60 mins; set-up: species or system Microsome
Sequence (P13516 whole entry): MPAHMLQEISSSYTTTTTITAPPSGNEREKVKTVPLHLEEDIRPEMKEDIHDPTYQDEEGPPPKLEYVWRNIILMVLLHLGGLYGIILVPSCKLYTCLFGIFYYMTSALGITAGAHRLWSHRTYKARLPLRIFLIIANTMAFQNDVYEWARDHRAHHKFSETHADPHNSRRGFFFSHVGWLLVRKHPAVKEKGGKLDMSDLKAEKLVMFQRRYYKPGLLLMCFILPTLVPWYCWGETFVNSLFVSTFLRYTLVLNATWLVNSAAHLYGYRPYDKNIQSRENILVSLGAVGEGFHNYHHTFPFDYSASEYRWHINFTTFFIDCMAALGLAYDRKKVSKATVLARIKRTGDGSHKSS

compound	IC50 [nM]
O=C(NCC(O)c1ccccc1)c1ccc(N2CCC(C(=O)c3ccccc3C(F)(F)F)CC2)nn1 (stereo not drawn)	2
Cc1ccccc1C(=O)C1CCN(c2ccc(C(=O)NCC(O)c3ccccn3)nn2)CC1 (stereo not drawn)	95
COc1ccccc1C(=O)C1CCN(c2ccc(C(=O)NCC(O)c3ccccc3)nn2)CC1 (stereo not drawn)	52
Cc1ccccc1C(=O)C1CCN(c2ccc(C(=O)NCC(O)c3ccncc3)nn2)CC1 (stereo not drawn)	34
Cc1ccccc1C(=O)C1CCN(c2ccc(C(=O)NCC(O)c3ccsc3)nn2)CC1 (stereo not drawn)	3
Cc1ccccc1C(=O)C1CCN(c2ccc(C(=O)NCC(O)c3ccc(F)cc3)nn2)CC1 (stereo not drawn)	7
O=C(NCCc1ccccc1)c1ccc(N2CCN(C(=O)c3ccccc3C(F)(F)F)CC2)cc1	150
Cc1ccccc1C(=O)C1CCN(c2ccc(C(=O)NCC(O)c3ccccc3F)nn2)CC1 (stereo not drawn)	9

These data points were gathered from ChEMBL document CHEMBL1153136.
